- Tested on: HCT-15 colon
- test_description: NCI tumour cell line growth inhibition, 48 h
Quick reference for TGI among some compounds

compound	measured
Cc1oc2c(C)c(O)c3c(c2c1C1(C)OCCO1)C(=O)C=C(Cl)C3=O	> 100 µM
CC(=O)NC(CCCCNC(=O)N(CCCl)N=O)C(=O)NCc1ccccc1 (stereo not given)	> 100 µM
CC1(C)CCC2(C(=O)OC3OC(CO)C(O)C(O)C3O)CCC3(C)C(=CCC4C5(C)CCC(OC6OC(CO)C(O)C(O)C6O)C(C)(C)C5CCC43C)C2C1 (stereo not given)	> 25 µM

// fetch HCT-15 colon TGI for COc1ccc(C(=O)N2CCc3c([nH]c4ccccc34)C2C(=O)O)o1 (stereo not given)
> 10 µM

// fetch HCT-15 colon TGI for CN1C2CCC1C(C(O)c1ccccc1[N+](=O)[O-])C(=O)C2 (stereo not given)
> 100 µM

###

- System: BT-549 breast
- test_description: NCI tumour cell line growth inhibition, 48 h
Quick reference for TGI among some compounds

Look over these answered cases.
compound	TGI
C=C1C(=O)O[C@@H]2C(=O)[C@@H](C)[C@@H]3C=CC(=O)[C@@]3(C)[C@@H](OC(=O)/C(C)=C\C)[C@H]12	2.01 µM
CC(C)[Si](OC1=C(C(=O)Nc2ccccc2Cl)CCCCC1)(C(C)C)C(C)C	> 100 µM
O=c1c2cc([N+](=O)[O-])ccc2n(Cc2ccccc2)n1Cc1ccccc1	27 µM
COc1cccc2c(NNc3ccccc3)c3ccc([N+](=O)[O-])cc3nc12	71.4 µM
O=c1cc(-c2ccc(Cl)cc2)[nH]c2ncccc12	> 100 µM

# TGI lookup, item COc1[nH]c(C(Cl)(Cl)Cl)c(Cl)c(=O)c1Cl
> 100 µM

# TGI lookup, item COC(=O)C(=O)c1c2ccccc2n2ccc3c4ccccc4[nH]c3c12
> 10 µM

# TGI lookup, item CC1(C)CCC2(C(=O)OC3OC(CO)C(O)C(O)C3O)CCC3(C)C(=CCC4C5(C)CCC(OC6OC(CO)C(O)C(O)C6O)C(C)(C)C5CCC43C)C2C1 (stereo unspecified)
> 25 µM

###

- Test system: HOP-62 NSCLC
- test_description: NCI tumour cell line growth inhibition, 48 h
assay_metric: TGI (µM)
A number alone suffices; assume µM.

compound	TGI, µM
Nc1nc(N)c2c(n1)NC(c1ccccc1)CC(/C=C/c1ccc(Cl)cc1)=N2 (stereo not drawn)	34
C#CCN=C(N/N=C/c1ccc([N+](=O)[O-])o1)NS(=O)(=O)c1cc(C)c(Cl)cc1SCC(N)=O	25.7
Oc1c2cc(Br)cc1CCc1cc(Br)cc(c1O)CC2	65.7
O=C(/C=C\c1cccc2ccccc12)c1cccs1	41.5

Field: next compound
# TGI lookup, item COc1cc(/C=C2\CN(C)C/C(=C\c3cc(OC)c(OC)c(OC)c3)C2=O)cc(OC)c1OC
1.13

###

- Tested on: NCI-H226 lung
- test_description: NCI tumour cell line growth inhibition, 48 h
assay_metric: TGI (µM)
A number alone suffices; assume µM.

compound	assay_target	TGI [µM]
O=CN1CCN(C(=O)c2cc(Cl)cc(Cl)c2)C1=S	NCI-H226 lung	32.7
NC1=C(Cl)C(=O)c2ccc(S(N)(=O)=O)cc2C1=O	NCI-H226 lung	0.595
COc1cc(/C=C/C(=O)c2ccc(Nc3ncnc4ccccc34)cc2)cc(OC)c1	NCI-H226 lung	8.91

// fetch NCI-H226 lung TGI for NC1CC(=O)c2c(Cl)sc(Cl)c21 (centres undefined)
30.9

###

Quick reference for TGI among some molecules
- System: LOX IMVI melanoma
- test_description: NCI tumour cell line growth inhibition, 48 h

// fetch LOX IMVI melanoma TGI for Oc1ccc(CNCc2ccccc2)c2cccnc12
> 100 µM

// fetch LOX IMVI melanoma TGI for COC(=O)C1=NN2c3ccccc3C(=O)OCCC2(C)C1 (configuration not stated)
> 100 µM

// fetch LOX IMVI melanoma TGI for CCOC(=O)C(NC(=O)c1ccccc1)(Nc1ccc(S(=O)(=O)Nc2nc(C)cc(C)n2)cc1)C(F)(F)F (configuration not stated)
> 100 µM

// fetch LOX IMVI melanoma TGI for COc1cccc2c(NNc3ccccc3)c3ccc([N+](=O)[O-])cc3nc12
> 100 µM

// fetch LOX IMVI melanoma TGI for c1ccc(C2C3=C(CCCC3)Nc3nc4cc5ccccc5cc4n32)cc1 (configuration not stated)
> 100 µM

// fetch LOX IMVI melanoma TGI for Cc1oc2c(C)c(O)c3c(c2c1C1(C)OCCO1)C(=O)C=C(Cl)C3=O
> 100 µM

###

- System: RPMI-8226 leukemia
- test_description: NCI tumour cell line growth inhibition, 48 h
Non-standard residues stand in square brackets, D forms with d. Residues, ends and D or L forms follow the SMILES beside them. ξ: configuration not given here. *: point of attachment. Boc = CC(C)(C)OC(=O)*; ξV = CC(C)C(N)C(=O)O; OBn = c1ccc(CO*)cc1
Quick reference for TGI among some molecules

Look over these answered cases.
molecule	assay_metric	measured
COc1ccc(/C(C)=C(\c2ccc(Cl)cc2)c2ccc(OCCN3CCCC3)cc2)cc1F	TGI	9.23 µM
CC(C)C(NC(=O)OC(C)(C)C)C(=O)NCC(=O)OCc1ccccc1 (stereo not drawn) (Boc-[ξV]-Gly-OBn)	TGI	86.1 µg/mL
O=C(NC1CCC(=O)N1C(=O)OCc1ccccc1)OCc1ccccc1 (stereo not drawn)	TGI	> 100 µM

// fetch RPMI-8226 leukemia TGI for CCOC(=O)c1sc2nc(SC)nc3c2c1N=CN3c1ccccc1Cl
> 100 µM

// fetch RPMI-8226 leukemia TGI for CCc1ccccc1NC(=O)CCc1n[nH]c(=S)o1
> 100 µM

// fetch RPMI-8226 leukemia TGI for COC(=O)c1ccc(N=NN(C)COc2ccc(C#N)cc2)cc1
> 100 µM

// fetch RPMI-8226 leukemia TGI for COc1ccc(C(=O)N2CCc3c([nH]c4ccccc34)C2C(=O)O)o1 (stereo not drawn)
> 10 µM

// fetch RPMI-8226 leukemia TGI for CCOC(=O)c1c(C)nc2ccc(Cl)cc2c1-c1ccccc1
40 µM

###

- Tested on: UACC-62 melanoma
- test_description: NCI tumour cell line growth inhibition, 48 h
Quick reference for TGI among some compounds
A number alone suffices; assume µM.

Look over these answered cases.
1. COc1cc2nc(Sc3c([N+](=O)[O-])ncn3C)[nH]c2cc1OC 75.8
2. N#CC(=S)Nc1ccc(Cl)c(Cl)c1 34.1
3. O=[N+]([O-])c1cc(CCl)ccc1CCl 11.4

Field: next compound
# TGI lookup, item Oc1c2cc(Br)cc1CCc1cc(Br)cc(c1O)CC2
46

###

Quick reference for TGI among some compounds
- Test system: K-562 leukemia
- test_description: NCI tumour cell line growth inhibition, 48 h

Look over these answered cases.
compound	measured
CCOC(=O)C(Cc1c2ccccc2cc2ccccc12)(NC(C)=O)C(=O)OCC	> 100 µM
N#CC(=S)Nc1ccc(Cl)c(Cl)c1	46.9 µM
COc1ccc(C(c2ccc(C(C)C)cc(=O)c2O)c2ccc3cccnc3c2O)cc1 (configuration not stated)	> 100 µM
Cc1oc2c(C)c(O)c3c(c2c1C1(C)OCCO1)C(=O)C=C(Cl)C3=O	> 100 µM
COc1cc(C#N)cc(OC)c1OCCOCCOc1c(OC)cc(C#N)cc1OC	37.1 µM
CC(=O)OCCCCn1cnc2nc(Nc3ccccc3)nc(Cl)c21	> 100 µM
O=C(O)C(CSC(c1ccccc1)(c1ccccc1)c1ccccc1)N=Cc1cccs1 (configuration not stated)	> 100 µM
Cc1c(C(=O)CC(=O)C(=O)Nc2ccc(Cl)c(Cl)c2)[n+](=O)c2ccccc2n1[O-]	57.2 µM

# TGI lookup, item CCC(C)OC(=O)C1C2CCC(O2)C1C(=O)O (configuration not stated)
> 100 µM

# TGI lookup, item C=C[C@]1(C)CCC2=C(CCC3C2(C)CCC[C@]3(C)CO)C1 (some centres not stated)
> 100 µM

# TGI lookup, item C[C@@H](CO)OCOCc1ccccc1
> 100 µM

# TGI lookup, item CC1(C)C=C(/C=N/Nc2ccc([N+](=O)[O-])cc2)C(C#N)=C(O)C1(C#N)C#N
> 100 µM

# TGI lookup, item Cc1cc(O)c(C(c2cccnc2)c2c(O)cc(C)[nH]c2=O)c(=O)[nH]1
> 100 µM

###

- System: SF-539 CNS
- test_description: NCI tumour cell line growth inhibition, 48 h
assay_metric: TGI

compound	measured
NCC#CCNCCCN1CC1	> 100 µM
NNC(=O)c1ccccc1Nc1ccccc1C(=O)NN	> 100 µM
Cc1cc(C)c(O)c(Cc2cccc(Cc3cc(C)cc(C)c3O)c2O)c1	> 100 µM
COc1cc(/C=C/C(=O)c2ccc(Nc3ncnc4ccccc34)cc2)cc(OC)c1	18 µM

# TGI lookup, item CSC(=NCCCCN=C(NS(=O)(=O)c1ccc(Cl)cc1)SC)NS(=O)(=O)c1ccc(Cl)cc1
> 100 µM

# TGI lookup, item O=C1CC(CC(O)C(O)C(O)CO)CC(=O)N1 (configuration not stated)
> 100 µM

# TGI lookup, item COc1cc(-c2cc(=O)c3ccccc3o2)ccc1N
> 100 µM

# TGI lookup, item CCc1ccccc1NC(=O)CCc1n[nH]c(=S)o1
> 100 µM

# TGI lookup, item Cc1oc2c(C)c(O)c3c(c2c1C1(C)OCCO1)C(=O)C=C(Cl)C3=O
> 100 µM

# TGI lookup, item C=C[C@]1(C)CCC2=C(CCC3C2(C)CCC[C@]3(C)CO)C1 (some centres not stated)
> 100 µM

# TGI lookup, item NC1CC(=O)c2c(Cl)sc(Cl)c21 (configuration not stated)
8.85 µM

# TGI lookup, item O=S(=O)(N=S(c1ccc(Cl)cc1)c1ccc(Cl)cc1)c1ccccc1
> 100 µM

From: PubChem BioAssay (NCI)
